# Test system: CEM cells HIV-1 protection, formazan growth assay
# test name: NCI AIDS Antiviral Assay
# conditions used: measured here: growth of uninfected CEM cells
# Description: The ability of compounds to protect human CEM cells from HIV-1 infection is measured as a screen for new compounds capable of inhibiting the HIV virus. Five concentrations of drug were tested on uninfected and infected cells and cell growth was measured using a soluble formazan assay. […] Compounds that provided at least 50% protection were retested. Compounds that provided at least 50% protection on retest were listed as moderately active. […]
A collection of molecules and their measured IC50
quantity kind: IC50 (µM)

molecule: CC(C)=CCC/C(C)=C/Cc1c(O)ccc2cc(-c3cc(O)cc(O)c3CC=C(C)C)oc12
comparison sign: =
value reported: 18.2
//
molecule: COC(=O)OCC1C=CC(n2cnc3c(Cl)ncnc32)CC1 (stereo not given)
comparison sign: =
value reported: 11.5
//
molecule: CCCCCCC[CH2][Sn]1([CH2]CCCCCCC)[O]C(=O)c2cccnc2[S]1
comparison sign: =
value reported: 91.2
//
molecule: Nc1ncc(CN2CCOCC2)c(-c2ccccc2O)n1
comparison sign: >
value reported: 200
//
molecule: CC(C)(C)[Si](C)(C)OCC1OC(n2ccc(=O)[nH]c2=O)C(O[Si](C)(C)C(C)(C)C)[C@@]12N[C@H](C(N)=O)CS2=O (stereo not given in full)
comparison sign: =
value reported: 12.3

###

# System: CEM cells HIV-1 protection, formazan growth assay
# test name: NCI AIDS Antiviral Assay
# conditions used: measured here: growth of uninfected CEM cells

compound: C=C(C)CCC[C@@H](C)C1CCC2(C)[C@@H]3CCC4C(C)(C)[C@@H](O)CC[C@@]45C[C@@]35CC[C@]12C (stereo not given in full)
measured on: CEM cells HIV-1 protection, formazan growth assay
comparison sign: =
IC50 [µM]: 46.8
--
compound: Cc1nc2sccn2c1C(=O)NN
measured on: CEM cells HIV-1 protection, formazan growth assay
comparison sign: =
IC50 [µM]: 912
--
compound: CC(=Nc1ccccc1C(=O)[O-])c1c([O-])ccc2c(C)cc(=O)oc12.[Cu+2].[OH3+]
measured on: CEM cells HIV-1 protection, formazan growth assay
comparison sign: >
IC50 [µM]: 1.32
--
compound: Cc1nc2n(C)c3ncn(Cc4ccccc4)c3c(=O)n2c1/C=C/C(C)C
measured on: CEM cells HIV-1 protection, formazan growth assay
comparison sign: >
IC50 [µM]: 33.1
--
compound: COC(=O)C/C(C(=O)OC)=C1\CCC2=C1N1CCCC1C2(CC(=O)OC)C(=O)OC (stereo not given)
measured on: CEM cells HIV-1 protection, formazan growth assay
comparison sign: >
IC50 [µM]: 162
--
compound: CCOC(=O)Cc1csc2[n+]1C(=O)/C(=C/c1cccc(OC)c1O)S2
measured on: CEM cells HIV-1 protection, formazan growth assay
comparison sign: =
IC50 [µM]: 174
--
compound: CC1CCP(=O)(c2ccccc2)C1 (stereo not given)
measured on: CEM cells HIV-1 protection, formazan growth assay
comparison sign: >
IC50 [µM]: 1290
--
compound: O=C1CC(c2ccc[nH]2)=NN1c1ccccc1
measured on: CEM cells HIV-1 protection, formazan growth assay
comparison sign: =
IC50 [µM]: 83.2
--
compound: CN(C)c1ccc(/C=C(\C#N)c2cccc(Br)c2)cc1
measured on: CEM cells HIV-1 protection, formazan growth assay
comparison sign: =
IC50 [µM]: 0.0631
--
compound: Cc1ccc(NC(=O)c2cc(S(=O)(=O)Nc3nc4ncccc4[nH]3)c(SSc3cc(Cl)c(C(=O)Nc4ccc(C)cc4)cc3S(=O)(=O)Nc3nc4ncccc4[nH]3)cc2Cl)cc1
measured on: CEM cells HIV-1 protection, formazan growth assay
comparison sign: >
IC50 [µM]: 200

The values you see were collected from PubChem BioAssay AID179.
